Test system: HCC827 cells
Assay: Inhibition of cell proliferation, CCK8 method
Type: cell-based, human
Details: Homo sapiens; HCC827 EGFR mutant cells, 48 h, CCK8; read-out: Inhibitory activity (IC50) against HCC827
Experimental: The stock solution was diluted with the corresponding culture medium to the required concentration just before the experiment. […] The cells were counted, and then seeded in a 96-well plate at a density of 5000 cells/well, 100 μl for each well. […] 450 nm wavelength was chosen, and the absorbance value of each well was adjusted on the microplate ELISA analyzer. The result was recorded. […] was taken as the horizontal axis, and absorbance as the vertical axis to plot a curve. […]
test.readout: pIC50
# reply with the number alone; pIC50 is -log10 of concentration in mol/L

q: I'd like to know its pIC50. The compound in question is C=CC(=O)Nc1cccc(Oc2nc(Nc3ccc(N4CCN(C)CC4)c(I)c3)nc3c2ccn3COC(=O)C(C)(C)C)c1
a: 4.29

---

Molecular target: UniProt P00533
test.readout: pIC50
# reply with the number alone; pIC50 is -log10 of concentration in mol/L

q: Identify the measured pIC50 of C=CC(=O)Nc1cccc(Oc2nc(Nc3ccc(N4CCN(C)CC4)c([N+](=O)[O-])c3)nc3[nH]ccc23)c1 for UniProt P00533.
a: 6.84

---

Target: EGFR (T790M L858R) (Homo sapiens, UniProt P00533, L858R/T790M)
Sequence (P00533 25-1210 T790M/L858R): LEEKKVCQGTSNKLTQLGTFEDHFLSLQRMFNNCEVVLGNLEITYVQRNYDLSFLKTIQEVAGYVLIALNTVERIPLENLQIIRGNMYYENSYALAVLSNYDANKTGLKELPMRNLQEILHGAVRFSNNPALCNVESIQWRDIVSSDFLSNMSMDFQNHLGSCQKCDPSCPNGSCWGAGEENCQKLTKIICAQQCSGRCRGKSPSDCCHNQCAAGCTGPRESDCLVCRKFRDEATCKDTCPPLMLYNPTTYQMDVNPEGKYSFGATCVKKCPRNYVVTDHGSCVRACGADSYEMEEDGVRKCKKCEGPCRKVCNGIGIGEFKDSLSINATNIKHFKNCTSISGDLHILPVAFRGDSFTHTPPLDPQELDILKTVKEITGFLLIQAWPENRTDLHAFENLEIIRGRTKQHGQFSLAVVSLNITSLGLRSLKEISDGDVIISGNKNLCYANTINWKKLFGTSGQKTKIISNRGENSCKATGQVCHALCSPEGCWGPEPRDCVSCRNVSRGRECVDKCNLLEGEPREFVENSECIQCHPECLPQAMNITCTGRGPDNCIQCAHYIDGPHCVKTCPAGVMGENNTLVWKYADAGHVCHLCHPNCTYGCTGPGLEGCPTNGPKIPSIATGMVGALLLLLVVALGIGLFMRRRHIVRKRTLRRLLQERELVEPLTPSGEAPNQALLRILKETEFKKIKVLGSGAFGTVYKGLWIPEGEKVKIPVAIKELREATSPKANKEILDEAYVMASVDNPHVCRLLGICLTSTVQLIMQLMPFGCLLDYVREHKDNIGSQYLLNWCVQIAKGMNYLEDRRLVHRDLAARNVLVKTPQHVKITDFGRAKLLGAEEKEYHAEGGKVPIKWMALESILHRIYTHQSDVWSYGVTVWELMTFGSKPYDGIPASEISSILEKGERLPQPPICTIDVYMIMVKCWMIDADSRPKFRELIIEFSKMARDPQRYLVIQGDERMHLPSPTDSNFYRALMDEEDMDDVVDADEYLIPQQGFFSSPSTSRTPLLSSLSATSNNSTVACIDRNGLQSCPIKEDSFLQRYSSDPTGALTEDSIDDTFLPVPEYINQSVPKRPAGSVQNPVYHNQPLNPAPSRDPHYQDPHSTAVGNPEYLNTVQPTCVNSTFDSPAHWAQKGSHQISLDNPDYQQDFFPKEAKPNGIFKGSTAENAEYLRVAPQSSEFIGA
Experiment: Kinase inhibition, mobility shift assay
Conditions: EGFR L858R/T790M double mutation; read-out: Inhibitory activity (IC50) on EGFR (T790M L858R)
As shown below, each of these compounds has a reported pIC50 value.
# reply with the number alone; pIC50 is -log10 of concentration in mol/L

q: I'd like to know its pIC50. The compound in question is C=CC(=O)Nc1cccc(Oc2nc(Nc3ccc(N4CCN(C)CC4)c(OC)c3)nc3[nH]ccc23)c1 [Compound 4]
a: 8.51

q: I'd like to know its pIC50. The compound in question is C=CC(=O)Nc1cccc(Oc2nc(Nc3ccc(N4CCN(C)CC4)c([N+](=O)[O-])c3)nc3[nH]ccc23)c1 [Compound 5]
a: 8.57

q: I'd like to know its pIC50. The compound in question is C=CC(=O)Nc1cccc(Oc2nc(Nc3ccc(N4CCN(C)CC4)c(N)c3)nc3[nH]ccc23)c1 [Compound 6]
a: 8.47

---

Target: EGFR (Homo sapiens, UniProt P00533)
Construct: purchased Carna 14-531
Sequence (P00533 25-1210): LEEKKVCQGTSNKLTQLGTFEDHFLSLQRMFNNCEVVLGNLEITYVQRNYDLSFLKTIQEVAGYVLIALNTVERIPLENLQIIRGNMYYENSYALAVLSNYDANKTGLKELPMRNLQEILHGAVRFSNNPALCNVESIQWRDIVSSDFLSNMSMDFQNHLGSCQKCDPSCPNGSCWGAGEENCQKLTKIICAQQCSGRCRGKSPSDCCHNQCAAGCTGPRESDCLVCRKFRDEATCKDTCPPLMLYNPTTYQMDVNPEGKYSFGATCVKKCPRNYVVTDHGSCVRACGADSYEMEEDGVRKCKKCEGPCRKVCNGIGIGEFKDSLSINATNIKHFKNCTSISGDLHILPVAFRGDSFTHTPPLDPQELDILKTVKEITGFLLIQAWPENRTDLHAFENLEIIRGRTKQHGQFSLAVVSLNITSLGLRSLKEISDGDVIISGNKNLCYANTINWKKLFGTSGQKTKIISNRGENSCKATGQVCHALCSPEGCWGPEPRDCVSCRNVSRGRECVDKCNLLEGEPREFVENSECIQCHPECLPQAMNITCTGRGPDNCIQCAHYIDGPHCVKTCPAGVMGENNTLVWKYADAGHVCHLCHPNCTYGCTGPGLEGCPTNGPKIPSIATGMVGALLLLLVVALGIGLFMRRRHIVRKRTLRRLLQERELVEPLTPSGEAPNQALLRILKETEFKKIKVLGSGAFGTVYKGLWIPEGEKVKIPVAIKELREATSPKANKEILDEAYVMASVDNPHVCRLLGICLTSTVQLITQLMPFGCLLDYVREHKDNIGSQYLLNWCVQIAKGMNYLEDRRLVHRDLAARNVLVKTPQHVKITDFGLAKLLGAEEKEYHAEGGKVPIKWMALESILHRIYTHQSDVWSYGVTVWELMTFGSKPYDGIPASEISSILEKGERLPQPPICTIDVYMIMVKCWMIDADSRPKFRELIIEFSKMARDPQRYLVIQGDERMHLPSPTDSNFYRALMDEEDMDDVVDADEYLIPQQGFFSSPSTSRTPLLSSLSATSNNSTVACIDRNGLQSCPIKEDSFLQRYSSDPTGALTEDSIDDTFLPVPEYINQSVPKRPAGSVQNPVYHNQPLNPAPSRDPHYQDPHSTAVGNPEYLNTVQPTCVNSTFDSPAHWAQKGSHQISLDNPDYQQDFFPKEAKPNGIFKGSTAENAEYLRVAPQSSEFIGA
Experiment: Kinase inhibition, mobility shift assay
Assay type: biochemical
Details: compound concentration 80 nM
test.readout: Single-concentration inhibitory activity against EGFR, Mean (100% inhibition)
Field: numeric (% inhibition). Do not append units.

Known results for compounds:
- record.smiles: "C=CC(=O)Nc1cccc(Oc2nc(Nc3ccc(N4CCN(C)CC4)c(N)c3)nc3[nH]ccc23)c1"
  target.or.test.system: "EGFR (Homo sapiens, UniProt P00533)"
  recorded.result: 63
- record.smiles: "C=CC(=O)Nc1cccc(Oc2nc(Nc3ccc(N4CCN(C)CC4)c([N+](=O)[O-])c3)nc3[nH]ccc23)c1"
  target.or.test.system: "EGFR (Homo sapiens, UniProt P00533)"
  recorded.result: 37

Alright, here's another compound for you.
q: Identify the measured Single-concentration inhibitory activity against EGFR, Mean (100% inhibition) of C=CC(=O)Nc1cccc(Oc2nc(Nc3ccc(N4CCN(C)CC4)c(I)c3)nc3c2ccn3COC(=O)C(C)(C)C)c1 for EGFR (Homo sapiens, UniProt P00533).
a: 3.6
